Recorded values, source patent US11613525B2.

molecular target: huSTING (HAQ) (Homo sapiens (Human), UniProt Q86WV6, G230A/H232R/R293Q/R71H); test: THP-1 reporter cell line assay, THP-1 STING Lucia ISG cells; assay type: cell-based; details: THP-1 STING Lucia ISG cells; 24 h; top concentration 50 μM; read-out: Cellular EC50 huSTING (HAQ)
Sequence (Q86WV6 whole entry R71H/G230A/H232R/R293Q): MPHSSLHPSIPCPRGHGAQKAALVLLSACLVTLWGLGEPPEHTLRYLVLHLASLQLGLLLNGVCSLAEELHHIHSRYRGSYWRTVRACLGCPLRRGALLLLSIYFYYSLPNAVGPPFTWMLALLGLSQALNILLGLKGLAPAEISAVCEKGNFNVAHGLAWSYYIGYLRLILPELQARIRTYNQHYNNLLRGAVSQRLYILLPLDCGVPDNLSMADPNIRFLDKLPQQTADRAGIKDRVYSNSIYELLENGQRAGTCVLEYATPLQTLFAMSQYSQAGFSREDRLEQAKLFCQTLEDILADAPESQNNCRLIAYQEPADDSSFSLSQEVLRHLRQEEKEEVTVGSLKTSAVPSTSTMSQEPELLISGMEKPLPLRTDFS
pEC50: −log10 of the molar value.
measured-quantity: pEC50

query-smiles: CCOC(=O)c1sc2cccc(Cl)c2c1COc1c(Cl)cc(C(N)=O)cc1Cl
comparative-sign: =
assay-value: 5.83
--
query-smiles: CC(C)OC(=O)c1sc2cccc(F)c2c1COc1ccc(C(N)=O)cc1
comparative-sign: =
assay-value: 5.59
--
query-smiles: CCOC(=O)c1sc2cccnc2c1COc1ccc(C(N)=O)cc1
comparative-sign: =
assay-value: 5.12
--
query-smiles: NC(=O)c1cc(Cl)c(OCc2c(C(=O)O)sc3cccc(Cl)c23)c(Cl)c1
comparative-sign: <
assay-value: 4.30
--
query-smiles: CCOC(=O)c1sc2cccc(Cl)c2c1COc1ccc(C(N)=O)cc1
comparative-sign: =
assay-value: 6.15
--
query-smiles: CCOC(=O)c1sc2ccc(F)c(Cl)c2c1COc1ccc(C(N)=O)cc1
comparative-sign: =
assay-value: 5.58
--
query-smiles: NC(=O)c1ccc(OCc2c(C(=O)O)sc3c(F)ccc(F)c23)cc1
comparative-sign: <
assay-value: 4.30
--
query-smiles: CCOC(=O)c1sc2cc(F)cc(F)c2c1COc1ccc(C(N)=O)cc1
comparative-sign: =
assay-value: 5.17
--
query-smiles: NC(=O)c1ccc(OCc2c(C(=O)O)sc3cccc(F)c23)cc1Cl
comparative-sign: <
assay-value: 4.30
--
query-smiles: CCOC(=O)c1sc2cccc(F)c2c1COc1ccc(C(N)=O)c(Cl)c1
comparative-sign: =
assay-value: 4.77
--
query-smiles: CCOC(=O)c1sc2cccc(F)c2c1COc1ccc(C(N)=O)c(C(F)(F)F)c1
comparative-sign: <
assay-value: 4.30
--
query-smiles: CCOC(=O)c1sc2ccc(C)c(Cl)c2c1COc1ccc(C(N)=O)cc1
comparative-sign: =
assay-value: 4.83
--
query-smiles: CCOC(=O)c1sc2cccc(OC)c2c1COc1ccc(C(N)=O)cc1
comparative-sign: =
assay-value: 6.18
--
query-smiles: CCOC(=O)c1sc2cccc(F)c2c1COc1c(F)cc(C(N)=O)cc1Br
comparative-sign: =
assay-value: 5.44
--
query-smiles: NC(=O)c1ccc(OCc2c(C(=O)O)sc3ccc(Cl)cc23)cc1
comparative-sign: <
assay-value: 4.30
--
query-smiles: NC(=O)c1ccc(NCc2c(C(=O)O)sc3cccc(Cl)c23)cc1
comparative-sign: =
assay-value: 5.57
--
query-smiles: Nc1noc2cc(OCc3c(C(=O)O)sc4cccc(Cl)c34)ccc12
comparative-sign: <
assay-value: 4.30
--
query-smiles: CCOC(=O)c1sc2cccc(Cl)c2c1COc1ccc(C(N)=O)nc1
comparative-sign: =
assay-value: 4.89
--
query-smiles: NC(=O)c1ccc(OCc2c(C(=O)O)sc3cccc(Cl)c23)c(Cl)c1
comparative-sign: <
assay-value: 4.30

----------
molecular target: huSTING (WT) (Homo sapiens (Human), UniProt Q86WV6, H232R); assay: THP-1 reporter cell line assay, THP-1-Dual KI-hSTING-R232 cells; assay type: cell-based; settings: read-out: Cellular EC50 huSTING (WT)
Sequence (Q86WV6 whole entry H232R): as the sequence (Q86WV6 whole entry R71H/G230A/H232R/R293Q) above, with H71R, A230G, Q293R counted along it
EC50 for assorted compounds

compound: CCOC(=O)c1sc2c(F)ccc(Cl)c2c1COc1c(F)cc(C(N)=O)cc1F
units-of-measure: nM
comparative-sign: =
EC50: 163

compound: CCOC(=O)c1sc2cccc(F)c2c1COc1c(F)cc(C(N)=O)cc1F
units-of-measure: nM
comparative-sign: >
EC50: 50000

compound: CCOC(=O)c1sc2c(C#N)ccc(Cl)c2c1COc1c(F)cc(C(N)=O)cc1F
units-of-measure: nM
comparative-sign: =
EC50: 207

compound: NC(=O)c1ccc(OCc2c(C(=O)OCc3ccccc3)sc3cccc(F)c23)cc1
units-of-measure: nM
comparative-sign: >
EC50: 50000

compound: COc1cccc2sc(C(=O)OCc3ccccc3)c(COc3ccc(C(N)=O)cc3)c12
units-of-measure: nM
comparative-sign: =
EC50: 4510

compound: CCOC(=O)c1sc2cccc(C#N)c2c1COc1ccc(C(N)=O)cc1
units-of-measure: nM
comparative-sign: =
EC50: 1650

compound: CCOC(=O)c1sc2c(CO)ccc(Cl)c2c1COc1c(F)cc(C(N)=O)cc1F
units-of-measure: nM
comparative-sign: =
EC50: 3840

compound: CCOC(=O)c1sc2cccc(Cl)c2c1COc1ccc(C(N)=O)nc1
units-of-measure: nM
comparative-sign: =
EC50: 24700

compound: CCOC(=O)c1sc2cccc(Cl)c2c1COc1ccc2c(N)noc2c1
units-of-measure: nM
comparative-sign: >
EC50: 50000

compound: CC(C)OC(=O)OC(C)OC(=O)c1sc2cccc(Cl)c2c1COc1c(F)cc(C(N)=O)cc1F (centres unmarked)
units-of-measure: nM
comparative-sign: =
EC50: 916

compound: CCOC(=O)c1sc2ccc(C)c(Cl)c2c1COc1ccc(C(N)=O)cc1
units-of-measure: nM
comparative-sign: >
EC50: 50000

compound: NC(=O)c1ccc(OCc2c(C(=O)O)sc3cccc(Cl)c23)c(Cl)c1
units-of-measure: nM
comparative-sign: >
EC50: 50000

compound: COc1nccc2sc(C(=O)O)c(COc3c(F)cc(C(N)=O)cc3CO)c12
units-of-measure: nM
comparative-sign: >
EC50: 40000

compound: CCOC(=O)c1sc2cccc(Cl)c2c1COc1c(F)cc(C(N)=O)cc1F
units-of-measure: nM
comparative-sign: =
EC50: 1630

compound: CCOC(=O)c1sc2cc(Cl)cc(F)c2c1COc1ccc(C(N)=O)cc1
units-of-measure: nM
comparative-sign: >
EC50: 50000

compound: CCOC(=O)c1sc2cncc(Cl)c2c1COc1c(F)cc(C(N)=O)cc1F
units-of-measure: nM
comparative-sign: =
EC50: 450

compound: CCOC(=O)c1sc2cccc(F)c2c1COc1ccc(C(N)=O)c(Cl)c1
units-of-measure: nM
comparative-sign: =
EC50: 24100

compound: CN(C)C(=O)OCOC(=O)c1sc2cccc(Cl)c2c1COc1c(F)cc(C(N)=O)cc1F
units-of-measure: nM
comparative-sign: =
EC50: 242

compound: CCOC(=O)c1sc2c(F)ccc(F)c2c1COc1ccc(C(N)=O)cc1
units-of-measure: nM
comparative-sign: =
EC50: 20700

compound: COc1cccc2sc(C(=O)O)c(COc3ccc(C(N)=O)cc3)c12
units-of-measure: nM
comparative-sign: >
EC50: 50000

compound: CCOC(=O)c1sc2cccc(Cl)c2c1COc1c(OC)cc(C(N)=O)cc1OC
units-of-measure: nM
comparative-sign: =
EC50: 2460

compound: NC(=O)c1ccc(NCc2c(C(=O)O)sc3cccc(Cl)c23)cc1
units-of-measure: nM
comparative-sign: =
EC50: 217

compound: CC(C)(C)C(=O)OCOC(=O)c1sc2cccc(Br)c2c1COc1c(F)cc(C(N)=O)cc1F
units-of-measure: nM
comparative-sign: =
EC50: 210

compound: NC(=O)c1cc(F)c(OCc2c(C(=O)O)sc3cccc(Cl)c23)c(CO)c1
units-of-measure: nM
comparative-sign: =
EC50: 17200

compound: CC(OC(=O)c1sc2cccc(Cl)c2c1COc1c(F)cc(C(N)=O)cc1F)OC(=O)C(C)C (centres unmarked)
units-of-measure: nM
comparative-sign: =
EC50: 334

compound: COCc1cc(OCc2c(C(=O)O)sc3cccc(Cl)c23)ccc1C(N)=O
units-of-measure: nM
comparative-sign: >
EC50: 40000

compound: CCOC(=O)c1sc2c(C)ccc(Cl)c2c1COc1c(F)cc(C(N)=O)cc1F
units-of-measure: nM
comparative-sign: =
EC50: 925

compound: CCOC(=O)c1sc2ccnc(Cl)c2c1COc1c(F)cc(C(N)=O)cc1F
units-of-measure: nM
comparative-sign: =
EC50: 862

compound: CCOC(=O)c1sc2cccc(Cl)c2c1COc1ccc(C(N)=O)c(COC)c1
units-of-measure: nM
comparative-sign: =
EC50: 489

compound: NC(=O)c1ccc(OCc2c(C(=O)O)sc3cccc(Cl)c23)c(F)c1F
units-of-measure: nM
comparative-sign: >
EC50: 50000

compound: CCOC(=O)c1sc2cccc(Cl)c2c1COc1ccc(C(N)=O)c(F)c1
units-of-measure: nM
comparative-sign: =
EC50: 1420

compound: CCOC(=O)c1sc2cccc(OC)c2c1COc1c(F)cc(C(N)=O)cc1F
units-of-measure: nM
comparative-sign: =
EC50: 6150

compound: CN(C)C(=O)COC(=O)c1sc2cccc(Cl)c2c1COc1c(F)cc(C(N)=O)cc1F
units-of-measure: nM
comparative-sign: =
EC50: 229

compound: NC(=O)c1ccc(OCc2c(C(=O)O)sc3cccc(F)c23)cc1Cl
units-of-measure: nM
comparative-sign: >
EC50: 50000

compound: COc1cccc2sc(C(=O)OCOC(=O)C(C)(C)C)c(COc3c(F)cc(C(N)=O)cc3F)c12
units-of-measure: nM
comparative-sign: =
EC50: 335
